// provenance: PubChem BioAssay (NCI)

growth inhibition for assorted molecules
Test: NCI Yeast Anticancer Drug Screen. Data for the cln2 rad14 strain (AID 165);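 further: 0% = growth equal to vehicle treated cultures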
Settings: S. cerevisiae cln2 rad14 strain, at 50.0 µM, active compounds read high
The panel holds about 79,000 compounds, 15% with a hit somewhere; the sample as a whole holds those more often.
measurement.kind: growth inhibition (%)

molecule	measurement
CC(NNC(=S)N1CCCCCC1)c1cccc[n+]1[O-] (configuration not stated)	97.6
CC1CCC2(OC1)OC1CC3C4CCC5CC(O)CCC5(C)C4C(=O)C(O)C3(C)C1C2C (configuration not stated)	16.7
CCN(CC)CCC(C(=O)O)(c1ccccc1)C1(O)CCCC1 (configuration not stated)	-26.8
N[C@@H](CSSc1ccccc1C(=O)O)C(=O)O	1.85
Cc1ccc(C(=O)/C=C\C=C\c2ccccc2)cc1	-3.7
CC1Cc2ccc(OCC(O)CO)cc2C1=O (configuration not stated)	15.1
CN(C)CCCNc1nnc(NCCCN(C)C)c2[nH]cnc12	-24.9
CN(/N=C\c1ccc2ccccc2c1)C1=NCCN1	-63
Cc1ccc([N+](=O)[O-])c(N)n1	2.3
Cc1n[nH]c(=S)[nH]c1=S	-42.1
CC12CCC(O)CC1=CCC1C2CCC2(C)C1CC1=CC(C#N)C(=O)NC12O (configuration not stated)	-65.4
CC1CC(C)NC(C)C1 (configuration not stated)	3.15
